test system: RPMI-8226 leukemia; experiment: NCI-60 one-dose screen, 48 h (100 = growth as untreated, 0 = no growth, -100 = all killed); conditions: 10 µM unless noted
Compounds without any hit were thinned out: in the full panel of roughly 83,000, 20% have a hit.
For each record, write down the corresponding growth.
One number for each entry, in %.

Please review the following examples before continuing.
compound | outputUnit | growth
O=C(O)c1cccc2oc(-c3ccccc3O)nc12 | % | 50.4
CC(C)C(=O)Nc1nc2c(s1)CCCc1ccn(S(=O)(=O)c3ccccc3)c1-2 | % | 87.5
CC(=O)c1cc2c(N)c(C(=O)Nc3cccc(Cl)c3)sc2nc1C | % | 76.7
CSc1ccc(C(=O)C[n+]2cccc(C)c2)cc1 | % | 98.2
CN1CCN(CC(O)COc2c(Br)c(Br)c(Br)c3c2OC(C)(C)C3)CC1 (stereo unspecified) | % | -11.3

Give measured growth for every item shown.
1. CC1(C)N=C(N)N=C(N)N1c1ccc(OCC(=O)Nc2ccccc2)c(Cl)c1
2. Clc1ccc(CN2COc3c(ccc4cccnc34)C2)cc1Cl
3. O=c1c(-c2ccc3c(c2)OCO3)coc2c(CO)c(O)ccc12

Result block:
34.5
-19.3
2.57

Look up growth for the entries below, preserving their order.
1. O=C(Nc1ccc(Cl)c(Cl)c1)Nc1ccc(Cl)c([N+](=O)[O-])c1
2. N#Cc1c(N)nc(Cl)c(C#N)c1C(=O)c1ccccc1
3. CCC(CC(C)C)Nc1ccc(NC(CC)CC(C)C)cc1 (stereo unspecified)
4. Cc1ccc(-c2cc(-c3nnc(SCC(=O)c4ccccc4)o3)c3ccccc3n2)cc1
5. O=C(Nc1ccc(-n2cc(-c3ccncc3)c(-c3ccc(O)c(Cl)c3)n2)cc1)c1ccc(Cl)c(C(F)(F)F)c1
6. COc1cc2ncn3c(=O)c4c5c(sc4nc3c2cc1OC)CCCCC5
7. CNCCCOc1c(Br)cc(CCNC(=O)/C(Cc2ccc(OC)c(Br)c2)=N/O)cc1Br

Result block:
1. -36.2
2. -17.6
3. -5.42
4. 106
5. -26.9
6. 103
7. 8.44

Here are 5 compounds. What values of growth were reported for them?
1. CCOC(=O)c1[nH]c(-c2ccc(Cl)cc2)cc1-c1cccnc1
2. COc1ccc(/C=C2\CS(=O)(=O)C/C(=C\c3ccc(OC)cc3)C2=O)cc1
3. C=CCn1c(SCC(=O)Nc2ccc(C(=O)/C=C/c3cc(OC)c(OC)c(OC)c3)cc2)nnc1-c1ccc(OC)cc1
4. COc1ccc2c(c1)OC(N)=C(C#N)C2c1ccc(F)cc1 (stereo unspecified)
5. CC(/C=C/C=C(\C)[C@H](O)[C@H](C)C(=O)O[C@H]1C[C@H](C)C=C2C=C[C@@]3(C)O[C@@H](O)CC(=O)[C@]3(C)[C@H]21)=C\C=C\C(=O)O

Result block:
4.59
-41.2
-33.1
6.87
27.6

Provide reported growth for each item, in the same order as listed.
1. O=[N+]([O-])c1cccc(C(c2ccccc2)c2ccccc2)c1
2. COc1ccc(-c2nnc(SCC(=O)N3CCN(c4cc5c(cc4F)c(=O)c(C(=O)O)cn5C4CC4)CC3)o2)cc1OC
3. FC(F)(F)c1cn(CCN2CCOCC2)c2ncnc(Cl)c12
4. O=c1c2ccccc2sc2c(NCCN3CCOCC3)nc3ccccc3c12
5. CC(CN(C)C)CN1c2ccccc2CCc2ccccc21 (stereo unspecified)
6. Cc1c(F)cccc1NC(=O)c1sc2nc3c(cc2c1N)CCCCC3
7. CCc1c2cc(Cl)ccc2n2cc(Cc3ccccc3)[nH]c(=O)c12
8. CN(C)C(=O)Nc1nc2cc(Cl)c(Cl)cc2[nH]1

Result block:
82.9
90.1
99
40.3
90.4
35.3
110
-15.7

Hey, just so you know, these numbers are from PubChem BioAssay (NCI).
